# EXPERIMENT_NOTES: in vitro
# MEASUREMENT_CONTEXT: human, hela cells, % viability
Listing of entries alongside the reported viability at 28.5 h, 10 µM.

Please review the following examples before continuing.
COc1ccc(NC(=O)[C@@H]2C=CCN2C(=O)c2ccco2)cc1 ... 88.5%
CCCC/C=C/c1cnc2[nH]c(=O)n(Cc3ccccn3)c2n1 ... 102%
CC(=O)Nc1ccc(S(=O)(=O)NC2(C(F)(F)F)C(=O)Nc3c2c(=O)[nH]c(=O)n3CCc2ccccc2)cc1 (stereo not drawn) ... 104%
CC(=O)c1[nH]c(C)c(C(=O)N(C)Cc2cc(-c3ccncc3)no2)c1C ... 97%
COc1cnc(-c2ccccc2OC)c(NC(=O)c2ccccc2)n1 ... 101%

query: I'd like to know its viability at 28.5 h, 10 µM. The compound in question is `Nc1ncc(-c2cccc3cccnc23)nc1N1CCC[C@@H]1CO`
result: 108%

query: Likewise for `COc1ccc(Nc2nc(-c3cccnc3)cnc2N)cc1` ?
result: 90.3%

query: Also need `O=C1CC2(CCN(C(=O)C3CCCC3)CC2)Oc2ccc(F)cc21` , thanks.
result: 80.2%

query: Also O=C(NCC1(c2cccc(Br)c2)CCOCC1)C1CC(O)CN1 (stereo not drawn) , if possible.
result: 95.9%
